tgt: UniProt:Q06710
Sequence (Q06710 whole entry): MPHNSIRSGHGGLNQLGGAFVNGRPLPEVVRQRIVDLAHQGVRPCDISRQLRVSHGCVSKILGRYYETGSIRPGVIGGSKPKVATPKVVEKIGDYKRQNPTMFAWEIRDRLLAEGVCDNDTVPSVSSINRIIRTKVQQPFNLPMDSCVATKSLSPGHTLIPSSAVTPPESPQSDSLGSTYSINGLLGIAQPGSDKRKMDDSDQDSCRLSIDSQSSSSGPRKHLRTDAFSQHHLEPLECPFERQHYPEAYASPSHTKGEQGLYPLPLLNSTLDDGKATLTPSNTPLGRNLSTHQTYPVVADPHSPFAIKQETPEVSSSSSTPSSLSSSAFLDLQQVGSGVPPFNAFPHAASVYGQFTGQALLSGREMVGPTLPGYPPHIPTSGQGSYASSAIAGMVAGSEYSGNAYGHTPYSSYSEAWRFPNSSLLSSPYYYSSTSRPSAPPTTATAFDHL
assay_info: inhibitors of PAX8-driven TPO luciferase reporter, dose response, RMG-I cells, cherry-pick (AID 687027);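 note: luciferase reporter driven by Pax8 target thyroperoxidase promoter measured by SteadyGlo luminescence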
Format: functional, cell-based
The source made the active and inactive calls. The rule behind the calls is not given here.
For each of the molecules below, state its AC50.

### Prompt Would you mind telling me what AC50 value was observed for Oc1ccc(C[C@H]2CNC(=S)N2CC2CCCN2C[C@H](Cc2ccc(O)cc2)N2C[C@H](Cc3ccc(O)cc3)N(CC3CCCCC3)C2=S)cc1 (some centres undefined) ?
### Response 6.44 µM (active)

### Prompt So what does the record say about AC50 for `COc1cccc(/C=N/Nc2nc(Nc3ccc([N+](=O)[O-])cc3)nc(N3CCCC3)n2)c1O` ?
### Response 5.65 µM (active)

### Prompt Give its AC50 value. Item: `COc1cccc(S(=O)(=O)N2CC[C@H]3[C@@H](CO)N(C)c4ccc(C#Cc5ccc(F)cc5)cc4[C@H]32)c1`
### Response 6.92 µM (active)

### Prompt AC50 for CN1CC(=O)N2C(c3ccc(Cl)cc3)c3[nH]c4ccccc4c3C[C@H]2C1=O (some centres undefined) ?
### Response 10.3 µM (active)

// data source = ChEMBL document CHEMBL1201862
